Biological target: GDP-bound KRAS wild-type protein (Homo sapiens)
Sequence (P01116 whole entry): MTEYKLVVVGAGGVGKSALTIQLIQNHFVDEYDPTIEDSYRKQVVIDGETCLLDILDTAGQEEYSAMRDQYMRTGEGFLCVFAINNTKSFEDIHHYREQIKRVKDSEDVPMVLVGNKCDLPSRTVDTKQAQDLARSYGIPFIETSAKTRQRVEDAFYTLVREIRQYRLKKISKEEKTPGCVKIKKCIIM
Experiment: Binding to KRAS by surface plasmon resonance (SPR), Single Cycle Kinetics
Settings: SPR Single Cycle Kinetics, GDP-bound KRAS wild-type protein, 1:1 binding model; read-out: KRAS KD
pKd: −log10 of the molar value. *1 amine or outer side, *2 acyl side, *3 side chain or, on linkers, in order; H or OH if unused. Where a SMILES comes first, the peptide text is derived from it. Bridges are numbered along the chain shown (N, C = ends). [ ]: non-standard residue; d: D form. The star is where a group is joined. hPhe(3-Cl-4-CF3) = N[C@@H](CCc1ccc(C(F)(F)F)c(Cl)c1)C(=O)O; X17 = CCCCN([C@@H](Cc1ccc(C(F)(F)F)cc1)C(=O)[*:2])[*:1]; NPrPhe(4-CF3) = CCCN[C@@H](Cc1ccc(C(F)(F)F)cc1)C(=O)O; NPrPhe(4-Me) = CCCN[C@@H](Cc1ccc(C)cc1)C(=O)O; NMePhe(4-Me) = CN[C@@H](Cc1ccc(C)cc1)C(=O)O; NMeGly(cPent) = CN[C@H](C(=O)O)C1CCCC1; Pro(4,4-F2) = O=C(O)[C@@H]1CC(F)(F)CN1; NMeD = CN[C@@H](CC(=O)O)C(=O)O; NMeL = CN[C@@H](CC(C)C)C(=O)O; Morpholide = C1CN(*)CCO1; NMeA = CN[C@@H](C)C(=O)O; Ac5c = NC1(C(=O)O)CCCC1; Aze = O=C(O)[C@@H]1CCN1; Ac4c = NC1(C(=O)O)CCC1; NEtG = CCNCC(=O)O; Sar = CNCC(=O)O
Classification field: enter fulfilled for pKd values not below 9, not fulfilled for values below it.

COMPOUND	LABEL
CCCCN1C(=O)CN(C)C(=O)CN(C)C(=O)[C@H]([C@@H](C)CC)NC(=O)[C@H](CC(C)C)N(C)C(=O)C[C@@H](C(=O)N2CCOCC2)N(C)C(=O)[C@H](C2CCCC2)N(C)C(=O)C2(CCCC2)NC(=O)[C@@H]2CCCN2C(=O)[C@H](CCc2ccc(C(F)(F)F)c(Cl)c2)NC(=O)CN(C)C(=O)[C@@H]1Cc1ccc(C(F)(F)F)cc1 [PP0120] ([NMeL]I[Sar][Sar][X17][Sar][hPhe(3-Cl-4-CF3)]P[Ac5c][NMeGly(cPent)][NMeD]-Morpholide; lactam N-11)	fulfilled
CCO[C@@H]1C[C@H]2C(=O)NC3(CC(C)(C)C3)C(=O)N(C)[C@@H](C3CCCC3)C(=O)N(C)[C@H](C(=O)N(C)CC)CC(=O)N(C)[C@H]3CCC/C=C/c4ccc(cc4)C[C@@H](C(=O)N(C)CC(=O)N[C@@H](CCc4ccc(Cl)c(Cl)c4)C(=O)N2C1)N1CC/C=C\C[C@@H](C1=O)N(C)C(=O)CN(C)C(=O)[C@H]([C@@H](C)CC)NC3=O [PP2577]	fulfilled
CC[C@H](C)[C@@H]1NC(=O)[C@H](CC(C)C)N(C)C(=O)C[C@@H](C(=O)N2CCOCC2)N(C)C(=O)[C@H](C2CCCC2)N(C)C(=O)C2(CCCC2)NC(=O)[C@@H]2CCCN2C(=O)[C@H](CCc2ccc(C(F)(F)F)c(Cl)c2)NC(=O)CN(C)C(=O)[C@H](Cc2ccc(C)cc2)N(C)C(=O)[C@@H]2CCN2C(=O)[C@H](C)N(C)C1=O [PP0001] ([NMeL]I[NMeA][Aze][NMePhe(4-Me)][Sar][hPhe(3-Cl-4-CF3)]P[Ac5c][NMeGly(cPent)][NMeD]-Morpholide; lactam N-11)	fulfilled
CCCN1C(=O)[C@@H]2CCN2C(=O)[C@H](C)N(C)C(=O)[C@H]([C@@H](C)CC)NC(=O)[C@H](CC(C)C)N(C)C(=O)C[C@@H](C(=O)N2CCOCC2)N(C)C(=O)[C@H](C2CCCC2)N(C)C(=O)C2(CCCC2)NC(=O)[C@@H]2CCCN2C(=O)[C@H](CCc2ccc(C(F)(F)F)c(Cl)c2)NC(=O)CN(CC)C(=O)[C@@H]1Cc1ccc(C)cc1 [PP0058] ([NMeL]I[NMeA][Aze][NPrPhe(4-Me)][NEtG][hPhe(3-Cl-4-CF3)]P[Ac5c][NMeGly(cPent)][NMeD]-Morpholide; lactam N-11)	not fulfilled

Could you now look at the following compound, please?
Q: hey, is pKd for this one >= 9? CCCN1C(=O)[C@@H]2CCN2C(=O)[C@H](C)N(C)C(=O)[C@H]([C@@H](C)CC)NC(=O)[C@H](CC(C)C)N(C)C(=O)C[C@@H](C(=O)N2CCOCC2)N(C)C(=O)[C@H](C2CCCC2)N(C)C(=O)C2(CCC2)NC(=O)[C@@H]2CC(F)(F)CN2C(=O)[C@H](CCc2ccc(C(F)(F)F)c(Cl)c2)NC(=O)CN(C)C(=O)[C@@H]1Cc1ccc(C(F)(F)F)cc1 [PP0208] ([NMeL]I[NMeA][Aze][NPrPhe(4-CF3)][Sar][hPhe(3-Cl-4-CF3)][Pro(4,4-F2)][Ac4c][NMeGly(cPent)][NMeD]-Morpholide; lactam N-11)
Result: fulfilled

Data origin: patent US20240158446A1
